- PROTOCOL: Stability of peptides in human liver microsomes
- Assay type: in vitro ADME
- MEASUREMENT CONTEXT: human, microsomes
- Method: b) Stability of Peptides in Human Plasma, Simulated Gastric Fluid, Intestinal Fluid and Liver Microsomes (Ex-Vivo): Different short-chain peptides (final concentration 2 μM) were incubated with either pooled human plasma (7.5 μL) or simulated gastric fluid (pH 1.5; composition HCl, NaCl and Pepsin) or simulated intestinal fluid (pH 7.5) or human liver microsomes, for 0, 2, 4, 6, 12 and 24 h (37° C.; 50 mM triethanolamine-HCl buffer; pH 7.8). […]
Where a SMILES comes first, the peptide text is derived from it. [ ]: non-standard residue; d: D form. ξ: configuration not given here. hArg = N=C(N)NCCCC[C@H](N)C(=O)O; ξαMeF = CC(N)(Cc1ccccc1)C(=O)O; Nle = CCCC[C@H](N)C(=O)O; Aib = CC(C)(N)C(=O)O
MEASURED ENDPOINT: half-life (min)
A number alone suffices; assume min.

Output half-life of CCCC[C@H](NC(=O)[C@H](CC(C)C)NC(=O)[C@H](CCC(N)=O)NC(=O)[C@@H](NC(=O)[C@H](CCC(=O)O)NC(=O)C(C)(C)NC(=O)[C@@H](NC(=O)C(C)(C)N)C(C)C)[C@@H](C)CC)C(=O)N[C@@H](Cc1c[nH]cn1)C(=O)N[C@@H](CCC(N)=O)C(=O)N[C@@H](CCCCNC(=N)N)C(=O)NC(C)(C)C(=O)N[C@@H](CCCCN)C(=O)NC(C)(Cc1ccccc1)C(N)=O (stereo partly shown) [Seq. ID. 10] (H-[Aib]V[Aib]EIQL[Nle]HQ[hArg][Aib]K[ξαMeF]-NH2)
30
